- Tested on: yellow nutsedge
- protocol_details: Preemergent control of plant species
- Format: in vivo, Cyperus esculentus
- measurement_context: Cyperus, pre-emergence, 336 h; 0.25 lb/acre; read-out: percent preemergent control
readout_type: pest or weed control at 280.212 g/ha (%)
Give the number; % is assumed, so skip it.

Use these answered entries as a reference point.
>>> recorded_number("Cc1cn2nc(S(=O)(=O)Nc3c(Cl)cccc3Cl)nc2nc1N(C)C")
30
>>> recorded_number("CCCCCCCCCC(=O)N(c1c(F)cccc1F)S(=O)(=O)c1nc2nc(C)ccn2n1")
100
>>> recorded_number("CC(=O)OCc1cccc(Cl)c1NS(=O)(=O)c1nc2nc(C)cc(C)n2n1")
0

Field request: pest or weed control at 280.212 g/ha | item: Cc1cc(C)n2nc(S(=O)(=O)Nc3ccc(Cl)cc3C(F)(F)F)nc2n1
70

Now try Cc1cc(C)n2nc(S(=O)(=O)Nc3ccccc3I)nc2n1 .
50

----------
Property: plant injury at 280.212 g/ha; scope: individual molecules
- System: rape
- protocol_details: Preemergent control of plant species
- Format: in vivo, Brassica napus
- measurement_context: Brassica napus, pre-emergence, 336 h; 0.25 lb/acre; read-out: percent preemergent control
Entry rule: numbers only, all in %.

These solved cases illustrate the format of a correct answer.
>>> recorded_number("Cc1cccc([N+](=O)[O-])c1NS(=O)(=O)c1nc2nccc(C)n2n1")
98
>>> recorded_number("Cc1cn2nc(S(=O)(=O)Nc3c(Cl)cccc3Cl)nc2nc1C")
100
>>> recorded_number("Cc1cc(C)n2nc(S(=O)(=O)Nc3ccccc3F)nc2n1")
100
>>> recorded_number("COc1nc2nc(S(=O)(=O)Nc3c(F)cccc3F)nn2cc1C")
100
>>> recorded_number("Cc1cc(C)n2nc(S(=O)(=O)Nc3ccc(Cl)cc3C(F)(F)F)nc2n1")
95
>>> recorded_number("Cc1cnc2nc(S(=O)(=O)Nc3c(Cl)cccc3Cl)nn2c1")
100

Please look up its plant injury at 280.212 g/ha: CC=CC(=O)N(c1c(F)cccc1F)S(=O)(=O)c1nc2nc(C)ccn2n1
100

Query Cc1ccn2nc(S(=O)(=O)N(C(=O)C=Cc3ccccc3)c3c(F)cccc3F)nc2n1 next
100

Here is the next molecule: Cc1ccn2nc(S(=O)(=O)N(C(=O)C3CCCCC3)c3c(F)cccc3F)nc2n1
100

Please do the same for COc1ccc(Cl)c(NS(=O)(=O)c2nc3nc(C)ccn3n2)c1Cl as well.
100

Try COC(=O)c1ccc(C)c(NS(=O)(=O)c2nc3nc(C)cc(C)n3n2)c1Br next.
100

Another molecule: Cc1cc(C(F)(F)F)n2nc(S(=O)(=O)Nc3c(Cl)ccc(C)c3Cl)nc2n1
100

Would you kindly repeat that for COc1nc2nc(S(=O)(=O)Nc3c(C)cccc3[N+](=O)[O-])nn2cc1C ?
100

Likewise for Cc1ccn2nc(S(=O)(=O)N(C(=O)CC(C)(C)C)c3c(F)cccc3F)nc2n1 ?
100

Then what about the molecule COc1nc2nc(S(=O)(=O)Nc3c(F)ccc(C)c3F)nn2cc1C ?
100

Also, COC(=O)c1cccc(C)c1NS(=O)(=O)c1nc2nc(C)cc(C)n2n1 please.
95

Next record, please: CCc1cccc(CC)c1NS(=O)(=O)c1nc2nc(C)cc(C)n2n1
80

Could you do the same for Cc1ccn2nc(S(=O)(=O)Nc3c(C)cccc3C#N)nc2n1 , please?
75

Cited source for all entries: patent US4740233A
